experiment: Human liver microsome (HLM) assay; format: in vitro ADME; conditions: human liver microsomes, 5 μM test compound
Classification field: enter MET for % remain (HLM, 2 h) values not below 60%, NOT MET for values below it.

Would you please look over these solved cases?
Cn1ccnc1C(=O)Nc1cccc(Oc2ccc3c(/C=C/c4ccccn4)n[nH]c3c2)c1 [Example 31(e)] ... NOT MET
C=CCNC(=O)c1ccccc1Sc1ccc2c(/C=C/c3ccccn3)n[nH]c2c1 ... NOT MET
O=C(NCC1CC1)c1ccccc1Sc1ccc2c(/C=C/c3ccccn3)n[nH]c2c1 ... NOT MET
O=C(Nc1cccc(C(=O)c2ccc3c(/C=C/c4ccccc4)n[nH]c3c2)c1)c1ccncc1 ... MET
CCn1nc(C)cc1C(=O)Nc1cc(Nc2ccc3c(/C=C/c4ccccn4)n[nH]c3c2)c(F)cc1C ... NOT MET
Cc1cc(C(=O)Nc2cccc(C(=O)c3ccc4c(/C=C/c5ccccn5)n[nH]c4c3)c2)n[nH]1 ... NOT MET
O=C(Nc1cccc(C(=O)c2ccc3c(/C=C/c4ccccn4)n[nH]c3c2)c1)c1ccccc1 ... MET
CCONC(=O)c1cccc(F)c1Sc1ccc2c(/C=C/c3ccccn3)n[nH]c2c1 ... NOT MET

(Q) Please check the record Cc1cc(C(=O)Nc2cc(C(=O)c3ccc4c(/C=C/c5ccccn5)n[nH]c4c3)c(C)cc2C)n(C)n1 and state if its % remain (HLM, 2 h) is at or above 60%.
(A) MET

(Q) Could you tell me if the measured % remain (HLM, 2 h) of Cc1cc(C(=O)Nc2cc(C(=O)c3ccc4c(/C=C/c5ccccn5)n[nH]c4c3)ccc2C)n(C(C)C)n1 reaches 60% or more?
(A) MET

---

assay: Determination of inhibitor concentration in mouse plasma after intraperitoneal and oral dosing; assay type: in vivo; details: PO, 50 mg/kg, vehicle PEG400:H2O pH 2.3 30:70
Outcome label depends on plasma half-life (T1/2) relative to 3 h: at/above gives Condition met, below gives Condition not met.

O=C(NC1CC1)c1ccccc1Sc1ccc2c(/C=C/c3ccccn3)n[nH]c2c1 [Example 33(e)] ... Condition not met
CCNC(=O)c1ccccc1Sc1ccc2c(/C=C/c3ccccn3)n[nH]c2c1 [Example 35(x)] ... Condition not met
CC(C)NC(=O)c1ccccc1Sc1ccc2c(/C=C/c3ccccn3)n[nH]c2c1 [Example 35(b)] ... Condition not met
O=C(NC1CCC1)c1ccccc1Sc1ccc2c(/C=C/c3ccccn3)n[nH]c2c1 [Example 35(c)] ... Condition met

Please find the next molecule below.
(Q) Textbook exercise: given the entry O=C(Nc1cc(Nc2ccc3c(/C=C/c4ccccc4)n[nH]c3c2)ccc1F)c1ccccc1 [Example 47] , state whether its plasma half-life (T1/2) is greater than or equal to 3 h.
(A) Condition met

---

experiment: Determination of inhibitor concentration in mouse plasma after intraperitoneal and oral dosing; type: in vivo; settings: female, PO, 25 mg/kg, vehicle PEG400:H2O pH 2.3 30:70, read-out: Cmin (7 hr conc.)
assay endpoint: log10 of concentration at 7 h (log10 of the value in ng/mL)
Form field - Quantity: concentration at 7 h; Unit: ng/mL; Scale: log10

Solved cases below.
Cc1cc(C(=O)Nc2cc(C(=O)c3ccc4c(/C=C/c5ccccn5)n[nH]c4c3)c(C)cc2C)n(C)n1 ... 2.10
CCc1cc(C(=O)Nc2cccc(C(=O)c3ccc4c(/C=C/c5ccccn5)n[nH]c4c3)c2)n(C)n1 ... 2.87
CONC(=O)c1ccccc1Sc1ccc2c(/C=C/c3ccccn3)n[nH]c2c1 [Example 35(r)] ... 1.83

Documented log10 of concentration at 7 h of CC(C)=CC(=O)Nc1cccc(C(=O)c2ccc3c(/C=C/c4ccccn4)n[nH]c3c2)c1 : 0.00

Please fill in: log10 of concentration at 7 h reported for O=C(NCc1ccncc1)c1ccccc1Sc1ccc2c(/C=C/c3ccccn3)n[nH]c2c1 = 0.70

# log10 of concentration at 7 h of CC(=O)Nc1cc(C(=O)c2ccc3c(/C=C/c4ccccn4)n[nH]c3c2)ccc1C = 1.46
